System: SK-MEL-2 melanoma
test.details: NCI tumour cell line growth inhibition, 48 h
observed.property: TGI

| compound | measured |
| --- | --- |
| CCN(CC)CCNc1ccc2ncn3c4c(OC)ccc(=O)c4c(O)c1c23 | > 100 µM |
| C[C@]12CC/C(=N\OC(=O)Nc3ccccc3)C=C1CC[C@@H]1C2CC[C@@]2(C)C1CC[C@@H]2OC(=O)Nc1ccccc1 (some centres undefined) | > 100 µM |
| O=C1Cc2c(-c3ccccc3)cc(-c3ccc4ccccc4c3)nc2-c2ccccc2N1 | > 100 µM |
| CCOC(=O)c1nc2cc(C(F)(F)F)ccc2nc1Oc1ccc(C(=O)OC)cc1 | > 100 µM |
| COC(=O)C(CCSc1ccccc1)C(=O)OC | > 100 µM |
| COc1ccc(NC(=O)CC(=O)n2nc(-c3ccccc3)c(N=Nc3ccccc3C)c2-c2ccccc2)cc1 | 56.9 µM |
| CC(C)N(C(=O)C12C3C4C5C3C1(C#N)C5C42)C(C)C (centres undefined) | > 100 µM |
| CN1CC(S(=O)(=O)c2ccccc2)CC(S(=O)(=O)c2ccccc2)C1c1ccccc1 (centres undefined) | 20 µM |
| CCCC(=O)Nc1ncnc2c1ncn2C1OC2COP(=O)(O)OC2C1OC(=O)CCC (centres undefined) | > 1000 µM |
| O=C(c1ccncc1)N1CCN(C2=NS(=O)(=O)c3ccccc3N2c2ccccc2)CC1 | 65.7 µM |
| O=C(CC(=O)c1cccc([N+](=O)[O-])c1)C(=O)Nc1nc([N+](=O)[O-])cs1 | > 100 µM |
| Nc1ccc(-c2nc3ccccc3s2)cc1F | 43.4 µM |
| COc1cc2c(cc1OC)C1(c3ccccc3)ON=C(c3ccccc3)N1CS2 (centres undefined) | > 100 µM |
| O=C(Nc1cccc(-n2cc(-c3ccncc3)c(-c3ccc(O)c(Cl)c3)n2)c1)c1ccc(N2CCOCC2)c(C(F)(F)F)c1 | > 50 µM |
| Cc1cn(C2CC(N=[N+]=[N-])C(CO)O2)c(=O)n(CCCCO)c1=O (centres undefined) | > 100 µM |
| O=C1C(Cl)C(c2cccc(Br)c2)N1c1c(O)c(Cl)cc(Br)c1Cl (centres undefined) | 25 µM |
| CN(C)c1ccc(/C=C2\N=C(c3ccccc3)N(/N=C3\C(=O)Nc4ccccc43)C2=O)cc1 | > 100 µM |
| C[CH2][Sn]([Cl])([CH2]C)[CH2]C | 4.48 µM |
| CN1CCN(CCCOc2ccc3nc(Nc4ccc(C(F)(F)F)c(Cl)c4)ccc3c2)CC1 | 4.46 µM |

====

Test system: HCT-116 colon
test.details: NCI tumour cell line growth inhibition, 48 h
Quick reference for TGI among some molecules

| molecule | TGI |
| --- | --- |
| CC1C(=O)CC[C@@]2(C)C(=O)CCCC12O (some centres undefined) | > 100 µM |
| CN/N=C(/CC(=O)c1sc(-n2nc(-c3ccccc3)cc2-c2ccccc2)nc1C)C(=O)Nc1ccc(Cl)c(Cl)c1 | > 100 µM |
| Cc1ccc(S(=O)(=O)NC(=O)C#CCOC2CCCCO2)cc1 (centres undefined) | > 100 µM |
| CS(=O)(=O)c1ccc(-c2[nH]c3ccc(F)cc3c2/C=N/NC(N)=S)cc1 | > 100 µM |
